Tested on: CYP3A4/5
Test: in vitro
Conditions: human, microsomes, pH 7.4, Percent of Control Activity, CYP 3A4/5 (tst), 43.8 µM, Zero-Minute Preincubation
measuredQuantity: activity at 43.8 µM (%)

[[record]]
smilesentry = "COc1cccc2[nH]c(C(=O)N[C@@H](CC(C)C)C(=O)N[C@@H](C[C@@H]3CCNC3=O)C(=O)CO)cc12"
testtarget = "CYP3A4/5"
quantitativeresult = 79.9


====

Molecular target: CYP2C9 (Homo sapiens, UniProt P11712)
Sequence (P11712 whole entry): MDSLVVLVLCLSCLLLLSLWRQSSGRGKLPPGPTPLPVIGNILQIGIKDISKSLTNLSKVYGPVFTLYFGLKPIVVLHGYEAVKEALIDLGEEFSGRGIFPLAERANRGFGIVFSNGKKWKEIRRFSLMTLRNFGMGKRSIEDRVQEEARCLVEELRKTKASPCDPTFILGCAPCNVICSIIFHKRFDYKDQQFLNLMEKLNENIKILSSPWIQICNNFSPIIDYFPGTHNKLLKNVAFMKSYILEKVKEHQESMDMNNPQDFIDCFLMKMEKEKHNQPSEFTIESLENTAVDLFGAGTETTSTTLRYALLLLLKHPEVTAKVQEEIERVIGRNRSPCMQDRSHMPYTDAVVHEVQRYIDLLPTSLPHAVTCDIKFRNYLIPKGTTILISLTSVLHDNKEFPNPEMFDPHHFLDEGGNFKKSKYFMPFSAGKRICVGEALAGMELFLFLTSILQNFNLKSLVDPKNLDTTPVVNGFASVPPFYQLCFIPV
Experiment: Reversible CYP inhibition in human liver microsomes
Conditions: human, microsomes, pH 7.4, Percent of Control Activity, CYP 2C9, 39.8 µM, Zero-Minute Preincubation
measuredQuantity: activity at 39.8 µM

[[record]]
smilesentry = "COc1cccc2[nH]c(C(=O)N[C@@H](CC(C)C)C(=O)N[C@@H](C[C@@H]3CCNC3=O)C(=O)COP(=O)(O)O)cc12"
result = "105%"

